Recorded values, source PubChem BioAssay (NCI).

- Test system: SK-MEL-5 melanoma
- PROTOCOL_DESCRIPTION: NCI tumour cell line growth inhibition, 48 h
Kindly state TGI for each of the entries shown.

Solved entries (count: 5):
> print(dat)
                                   compound  recorded.endpoint    result
1  CC1=C(C(=O)NC2CCCCC2)CC(C(=O)NC2CCCCC2)=C(C)N1                TGI  > 100 µM
2  CC1(C)CCC(C)(C)c2cc(C(=O)Nc3ccc(C(=O)O)cc3)ccc21                TGI   > 56 µM
3  Cn1c2c(c3ccccc31)CCN1C(=O)C34CCCC3CC21S4 (centres undefined)                TGI  > 100 µM
4       Nc1nc2c(ncn2Cc2ccccc2CCO)c(=O)[nH]1                TGI  > 100 µM
5  CC1CCc2sc3nc4n(c(=O)c3c2C1)CC(C)S4 (centres undefined)                TGI   34.4 µM

Lab note: each compound below needs its TGI filled in.
1. CON(C)C(=O)C(C)NC(=O)OCc1ccccc1 (centres undefined)
2. NS(=O)(=O)c1ccc(N2Cc3cc(Cl)ccc3OC3=C2C(=O)N(CC2CCCCC2)C3=O)cc1
3. COc1ccc2nc(-c3ccccc3)cc(Nc3cccc(/C(C)=N\O)c3)c2c1
4. Cc1ccc(C(=O)Nc2ccc(CN3CCN(C)CC3)c(C(F)(F)F)c2)cc1C#Cc1cnc(N)c2ccc(F)cc12
5. COc1cc(-c2csc(NC(=O)c3cc(C(F)(F)F)cc(C(F)(F)F)c3)n2)cc(OC)c1OC
6. O=C1CC(c2ccccc2Cl)C2(C(=O)NC(=O)NC2=O)C(c2ccccc2Cl)C1 (centres undefined)
7. N#Cc1nc(CCCN2C(=O)c3ccccc3C2=O)oc1N

Marked response:
> 100 µM
3.25 µM
41 µM
2.18 µM
3.11 µM
> 100 µM
> 100 µM

###

- Test system: MDA-MB-435
- PROTOCOL_DESCRIPTION: NCI tumour cell line growth inhibition, 48 h
RECORDED_ENDPOINT: TGI

Solved entries (count: 2):
> print(dat)
                                   compound    result
1  Cc1cc(N(CCNc2ccnc3cc(Cl)ccc23)Cc2ccc3c(c2)OCO3)nc(N2CCN(C)CC2)n1   3.07 µM
2  CCC(=O)Nc1ccc(NS(=O)(=O)c2ccc(Cl)cc2)cc1  > 100 µM

Lab note: each compound below needs its TGI filled in.
1. N#C/C(=C\c1cccc(Br)c1)c1nc2ccccc2c(=O)[nH]1
2. CCOC(=O)C1(C(=O)OCC)CCC(C(OC)OC)C(CC(=O)OC)C1 (stereo unspecified)
3. O=C1CC(c2ccccc2Cl)C2(C(=O)NC(=O)NC2=O)C(c2ccccc2Cl)C1 (stereo unspecified)

Marked response:
["> 100 µM", "> 10 µM", "> 100 µM"]

Lab note: each compound below needs its TGI filled in.
1. CC1=C(C(=O)NC2CCCCC2)CC(C(=O)NC2CCCCC2)=C(C)N1
2. COC(=O)C1=C(C(=O)OC)SC(=C2SC3=C(SC(=C4SCCS4)S3)S2)S1
3. CCOC(=O)c1c(NC(=O)c2ccc(C(C)C)cc2)sc2c(CN(C)C)c(O)ccc12
4. O=C1N/N=C\c2ccc(cc2)OCc2cccc(n2)COc2ccc(cc2)/C=N\NC1=O

Marked response:
> 100 µM
> 100 µM
3.37 µM
> 25 µM

Lab note: each compound below needs its TGI filled in.
1. Fc1cccc(COc2ccc(Nc3ncnc4sc(-c5ccco5)cc34)cc2Cl)c1
2. Cn1c2c(c3ccccc31)CCN1C(=O)C34CCCC3CC21S4 (stereo unspecified)

Marked response:
["> 25 µM", "> 100 µM"]
